- Subject of test: Protein kinase C (PKC)
- Measurement protocol: Inhibition of rat brain protein kinase C
Quantity kind: IC50 (µg/mL)

Answered examples (2):
CCCCn1c2nc(=O)[nH]c(=O)c-2cc2ccccc21
89.7
CCn1c2nc(=O)n(C)c(=O)c-2cc2ccccc21
46.6

A = CCn1c2nc(-c3ccccc3)nc(=O)c-2cc2ccccc21
B = C[C@H]1CNCCN1S(=O)(=O)c1cccc2cnccc12
Prompt: Would you kindly point out which of A and B has the smaller IC50 figure? State the label of the item chosen.
Response: A
(A: 12.9 µg/mL, B: 38.4 µg/mL)

* * *

- Subject of test: Protein kinase C (PKC)
- Measurement protocol: Inhibition of rat brain protein kinase C
Quantity kind: IC50 (µg/mL)

Answered examples (4):
Cn1c2nc(=O)n(-c3ccccc3)c(=O)c-2cc2ccccc21
60.1
Cn1c2nc(-c3ccccc3)nc(=O)c-2cc2ccccc21
3.54
Cc1ccc2c(c1)cc1c(=O)n(C)c(=O)nc-1n2-c1ccccc1
26.4
CCCn1c2nc(=O)n(C)c(=O)c-2cc2ccccc21
46

A = CCn1c2nc(=O)n(-c3ccccc3)c(=O)c-2cc2ccccc21
B = Cn1c2nc(N)nc(=O)c-2cc2ccccc21
Prompt: Would you kindly point out which of A and B has the smaller IC50 figure? State the label of the item chosen.
Response: B
(B: 14.8 µg/mL, A: 53.3 µg/mL)

A = Cc1ccc2c(c1)cc1c(=O)nc(-c3ccccc3)nc-1n2C
B = CCn1c2nc(=O)[nH]c(=O)c-2cc2cc(C)ccc21
C = CCCCn1c2nc(=O)n(C)c(=O)c-2cc2ccccc21
Prompt: Rank entries according to their IC50, from the largest number down. To answer, write out the labels according to the requested order.
Response: C, B, A
(C: 23.9 µg/mL, B: 10 µg/mL, A: 4.55 µg/mL)
